target: human PFKFB3 (Homo sapiens); assay: 2-Kase assay and kinetic analysis (enzyme-coupled Fru-2,6-BP assay); format: biochemical; parameters: 443 amino acid residues of the full-length protein of 520 residues; 6xHis; made in house; host or cells: Escherichia coli BL21(DE3) pLysS; settings: competitive against Fru-6-P
value_type: pKi
On this scale, pKi is minus log10 of a concentration expressed in M (mol/L).

Kindly note the recorded pKi for O=c1cc(-c2ccc(O)cc2)oc2c(O)c(O)c(O)c(O)c12 , which is 5.89

###

molecular target: human PFKFB3 (Homo sapiens, UniProt Q16875)
Sequence (Q16875 whole entry): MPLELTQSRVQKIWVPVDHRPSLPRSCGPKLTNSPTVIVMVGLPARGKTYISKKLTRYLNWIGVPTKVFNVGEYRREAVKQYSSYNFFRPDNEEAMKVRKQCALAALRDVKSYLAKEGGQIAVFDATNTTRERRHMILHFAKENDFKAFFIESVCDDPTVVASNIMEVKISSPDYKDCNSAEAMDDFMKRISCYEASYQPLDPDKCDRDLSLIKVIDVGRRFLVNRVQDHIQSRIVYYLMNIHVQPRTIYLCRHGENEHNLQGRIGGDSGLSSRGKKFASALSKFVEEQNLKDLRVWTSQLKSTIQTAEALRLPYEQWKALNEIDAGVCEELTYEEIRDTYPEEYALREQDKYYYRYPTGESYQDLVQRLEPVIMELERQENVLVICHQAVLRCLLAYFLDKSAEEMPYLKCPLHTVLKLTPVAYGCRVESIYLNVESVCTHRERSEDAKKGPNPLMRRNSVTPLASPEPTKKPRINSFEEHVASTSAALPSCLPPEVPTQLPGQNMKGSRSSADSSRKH
value_type: IC50 (nM)
Give your result in nM as a bare value.

Measured IC50 of O=c1cc(-c2ccc(O)cc2)oc2c(O)c(O)c(O)c(O)c12 : 2970
